Target: OBD K76A (Streptococcus plasmid pMV158, UniProt P13921 1-131, K76A)
Experiment: EMSA; EMSA: 20 mM Tris-HCl pH 8.0, 5 mM DTT, 300 mM NaCl, 20 nM DNA, 20 min 25 C; footprinting same buffer; SPR: 10 mM HEPES pH 7.4, 150 mM NaCl, 3 mM EDTA, 0.005% P20
Conditions: protein: recombinant; label: 5'-Cy5 (top); blunt
Endpoint Label: Kd (µM)
Answers are plain numbers, in µM.

Please report Kd for the following binder: 1DDR (dsDNA) DNA 1: AATCTCGGCGACTTTTTAGA DNA 2: TCTAAAAAGTCGCCGAGATT
5.5

This collection of values is drawn from paper PMC9943647.
